- System: 521955-158-R2-J5-PDC complex spheroid viability
- protocol: Anticancer human tumor 521955-158-R2-J5-PDC patient-derived pancreatic carcinoma cell line growth inhibition; active = viability on the fitted dose curve at most 10% of control; inactive = the rest
- cond: second compound 0.316 µM; first compound 10 µM
Outcome codes: active, inactive

molecule	qualitative label
CC(C)c1c(-c2ccccc2)nc2c(C#N)c[nH]n2c1=O + NC1CC1c1ccc(-c2cccc(O)c2)cc1	inactive
COc1ccc([C@@H](O)c2cc(-c3ncnc4cc(N5CCOCC5)ccc34)c(F)cc2Cl)nn1 + NC1CC1c1ccc(-c2cccc(O)c2)cc1	inactive
CC1(C)CCC(CN2CCN(c3ccc(C(=O)NS(=O)(=O)c4ccc(NCC5CCOCC5)c([N+](=O)[O-])c4)c(Oc4cnc5[nH]ccc5c4)c3)CC2)=C(c2ccc(Cl)cc2)C1 + NC1CCC(NC2CC2c2ccccc2)CC1	active
CC1COCCN1c1cc(C2(S(C)(=N)=O)CC2)nc(-c2ccnc3[nH]ccc23)n1 (centres undefined) + NC1CCC(NC2CC2c2ccccc2)CC1	inactive

---

- System: 521955-158-R2-J5-PDC complex spheroid viability
- protocol: Anticancer human tumor 521955-158-R2-J5-PDC cell line growth inhibition;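 also: spheroids exposed to agents for seven days; percent of DMSO vehicle control luminescence viability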
- cond: second compound 1 µM; first compound 0.949 µM; active compounds read low
parameter: viability, T/C (%)

> print(dat)
                                   compound                             target.system  unit.annotation  reading
1  CCN(c1cc(-c2ccc(CN3CCOCC3)cc2)cc(C(=O)NCc2c(C)cc(C)[nH]c2=O)c1C)C1CCOCC1 + NC1CCC(NC2CC2c2ccccc2)CC1  521955-158-R2-J5-PDC complex spheroid viability                %       66
2  O=C(C=Cc1cccc(S(=O)(=O)Nc2ccccc2)c1)NO + NC1CCC(NC2CC2c2ccccc2)CC1  521955-158-R2-J5-PDC complex spheroid viability                %       13
3  Nc1ccccc1NC(=O)c1ccc(CNC(=O)OCc2cccnc2)cc1 + NC1CCC(NC2CC2c2ccccc2)CC1  521955-158-R2-J5-PDC complex spheroid viability                %     12.4

---

- Test system: 521955-158-R2-J5-PDC complex spheroid viability
- protocol: Anticancer human tumor 521955-158-R2-J5-PDC cell line growth inhibition;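 also: spheroids exposed to agents for seven days; percent of DMSO vehicle control luminescence viability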
- cond: second compound 10 µM; first compound 0.01 µM; active compounds read low
viability, T/C by entry:
parameter: viability, T/C (%)

> print(dat)
                                   molecule  unit.annotation  reading
1  CC1COCCN1c1cc(-c2ccnn2C)c2ccnc(-c3ccn[nH]3)c2n1 (stereo not given) + NC1CC1c1ccc(-c2cccc(O)c2)cc1                %     22.6
2  CC(C)CC(NC(=O)CNC(=O)c1cc(Cl)ccc1Cl)B1OC(=O)CC(CC(=O)O)(C(=O)O)O1 (stereo not given) + NC1CC1c1ccc(-c2cccc(O)c2)cc1                %     8.29
3  Cn1ncnc1C1c2n[nH]c(=O)c3cc(F)cc(c23)NC1c1ccc(F)cc1 (stereo not given) + NC1CC1c1ccc(-c2cccc(O)c2)cc1                %     94.4
4  COc1cc(Nc2ncc3c(n2)-c2ccc(Cl)cc2C(c2c(F)cccc2OC)=NC3)ccc1C(=O)O + NC1CCC(NC2CC2c2ccccc2)CC1                %     53.9
5  Cn1ncnc1C1c2n[nH]c(=O)c3cc(F)cc(c23)NC1c1ccc(F)cc1 (stereo not given) + NC1CCC(NC2CC2c2ccccc2)CC1                %     84.6

meta.source: PubChem BioAssay AID1918937
